biological target: panel of 442 kinases (Homo sapiens, UniProt Q13882); construct: purchased KINOMEscan; assay type: binding; conditions: Compound Concentration 10 µM
Sequence (Q13882 whole entry): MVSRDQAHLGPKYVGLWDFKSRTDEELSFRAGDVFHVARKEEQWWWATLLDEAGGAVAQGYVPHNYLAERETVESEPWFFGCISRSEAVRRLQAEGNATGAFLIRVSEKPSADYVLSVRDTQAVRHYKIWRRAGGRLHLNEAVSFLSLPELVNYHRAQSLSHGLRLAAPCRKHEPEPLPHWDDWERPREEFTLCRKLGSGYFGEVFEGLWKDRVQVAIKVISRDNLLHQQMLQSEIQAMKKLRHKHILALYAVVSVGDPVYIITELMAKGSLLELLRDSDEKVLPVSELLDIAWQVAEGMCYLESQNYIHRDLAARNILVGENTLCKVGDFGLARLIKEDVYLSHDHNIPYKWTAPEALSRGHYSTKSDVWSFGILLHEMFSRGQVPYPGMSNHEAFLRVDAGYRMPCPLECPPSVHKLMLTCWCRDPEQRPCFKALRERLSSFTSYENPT
Reported KINOMEscan: BRK values for the following compounds.
Lab note: write the figure by itself, no unit.

# compound, observationType, quantitativeResult
rows = [
    ("CCOc1cc(C(=O)N2CCC(N3CCN(C)CC3)CC2)ccc1Nc1ncc2c(n1)N(C1CCCC1)c1ccccc1C(=O)N2C [Compound 26]", "KINOMEscan: BRK", 62),
    ("COc1cc(C(=O)N2CCC(N3CCN(C)CC3)CC2)ccc1Nc1ncc2c(n1)N1CCc3cccc(c31)C(=O)N2C [Compound 24]", "KINOMEscan: BRK", 54),
    ("COc1cc(C(=O)N2CCC(N3CCN(C)CC3)CC2)ccc1Nc1ncc2c(n1)N(C1CCCC1)c1ccccc1C(=O)N2C [Compound 25]", "KINOMEscan: BRK", 29),
]

We next turn to a different compound, shown below.
Task: For the compound COc1cc(C(=O)N2CCC(N3CCN(C)CC3)CC2)ccc1Nc1ncc2c(n1)N(C)c1ccccc1C(=O)N2C [15 (LRRK2-IN-1)] , give its measured KINOMEscan: BRK value.
Output: 58

====

molecular target: panel of 442 kinases (Homo sapiens, UniProt Q13153); construct: purchased KINOMEscan; assay type: binding; settings: Compound Concentration 10 µM
Sequence (Q13153 whole entry): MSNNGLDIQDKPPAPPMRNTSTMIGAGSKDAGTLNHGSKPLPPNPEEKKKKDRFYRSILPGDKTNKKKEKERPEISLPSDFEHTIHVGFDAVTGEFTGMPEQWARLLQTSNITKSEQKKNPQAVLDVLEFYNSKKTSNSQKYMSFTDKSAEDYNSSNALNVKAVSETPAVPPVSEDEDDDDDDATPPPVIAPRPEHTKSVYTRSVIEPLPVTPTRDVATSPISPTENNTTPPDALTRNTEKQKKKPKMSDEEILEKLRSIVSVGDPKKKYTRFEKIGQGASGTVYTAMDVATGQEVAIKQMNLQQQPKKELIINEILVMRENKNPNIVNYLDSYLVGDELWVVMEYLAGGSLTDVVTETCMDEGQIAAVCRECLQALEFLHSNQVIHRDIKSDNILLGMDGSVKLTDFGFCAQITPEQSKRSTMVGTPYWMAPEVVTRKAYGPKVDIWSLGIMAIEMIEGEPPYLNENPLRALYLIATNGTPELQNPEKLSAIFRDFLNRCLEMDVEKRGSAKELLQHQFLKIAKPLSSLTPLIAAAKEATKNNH
Listing of entries alongside the reported KINOMEscan: PAK1.
# print the numeric value only

# compound, tgt, quantitativeResult
records = [
    ("COc1cc(C(=O)N2CCC(N3CCN(C)CC3)CC2)ccc1Nc1ncc2c(n1)N1CCc3cccc(c31)C(=O)N2C [Compound 24]", "panel of 442 kinases (Homo sapiens, UniProt Q13153)", 85),
    ("COc1cc(C(=O)N2CCC(N3CCN(C)CC3)CC2)ccc1Nc1ncc2c(n1)N(C)c1ccccc1C(=O)N2C [15 (LRRK2-IN-1)]", "panel of 442 kinases (Homo sapiens, UniProt Q13153)", 95),
]

Task: For panel of 442 kinases (Homo sapiens, UniProt Q13153), give the measured KINOMEscan: PAK1 of the entry CCOc1cc(C(=O)N2CCC(N3CCN(C)CC3)CC2)ccc1Nc1ncc2c(n1)N(C1CCCC1)c1ccccc1C(=O)N2C [Compound 26]
Output: 100

Task: Answer briefly: KINOMEscan: PAK1 recorded on panel of 442 kinases (Homo sapiens, UniProt Q13153) for COc1cc(C(=O)N2CCC(N3CCN(C)CC3)CC2)ccc1Nc1ncc2c(n1)N(C1CCCC1)c1ccccc1C(=O)N2C [Compound 25]
Output: 82

====

Form field: KINOMEscan: EGFR(L861Q) (one value per entry).
target: panel of 442 kinases (Homo sapiens, UniProt P00533, L861Q); construct: purchased KINOMEscan; type: binding; settings: Compound Concentration 10 µM
Sequence (P00533 25-1210 L861Q): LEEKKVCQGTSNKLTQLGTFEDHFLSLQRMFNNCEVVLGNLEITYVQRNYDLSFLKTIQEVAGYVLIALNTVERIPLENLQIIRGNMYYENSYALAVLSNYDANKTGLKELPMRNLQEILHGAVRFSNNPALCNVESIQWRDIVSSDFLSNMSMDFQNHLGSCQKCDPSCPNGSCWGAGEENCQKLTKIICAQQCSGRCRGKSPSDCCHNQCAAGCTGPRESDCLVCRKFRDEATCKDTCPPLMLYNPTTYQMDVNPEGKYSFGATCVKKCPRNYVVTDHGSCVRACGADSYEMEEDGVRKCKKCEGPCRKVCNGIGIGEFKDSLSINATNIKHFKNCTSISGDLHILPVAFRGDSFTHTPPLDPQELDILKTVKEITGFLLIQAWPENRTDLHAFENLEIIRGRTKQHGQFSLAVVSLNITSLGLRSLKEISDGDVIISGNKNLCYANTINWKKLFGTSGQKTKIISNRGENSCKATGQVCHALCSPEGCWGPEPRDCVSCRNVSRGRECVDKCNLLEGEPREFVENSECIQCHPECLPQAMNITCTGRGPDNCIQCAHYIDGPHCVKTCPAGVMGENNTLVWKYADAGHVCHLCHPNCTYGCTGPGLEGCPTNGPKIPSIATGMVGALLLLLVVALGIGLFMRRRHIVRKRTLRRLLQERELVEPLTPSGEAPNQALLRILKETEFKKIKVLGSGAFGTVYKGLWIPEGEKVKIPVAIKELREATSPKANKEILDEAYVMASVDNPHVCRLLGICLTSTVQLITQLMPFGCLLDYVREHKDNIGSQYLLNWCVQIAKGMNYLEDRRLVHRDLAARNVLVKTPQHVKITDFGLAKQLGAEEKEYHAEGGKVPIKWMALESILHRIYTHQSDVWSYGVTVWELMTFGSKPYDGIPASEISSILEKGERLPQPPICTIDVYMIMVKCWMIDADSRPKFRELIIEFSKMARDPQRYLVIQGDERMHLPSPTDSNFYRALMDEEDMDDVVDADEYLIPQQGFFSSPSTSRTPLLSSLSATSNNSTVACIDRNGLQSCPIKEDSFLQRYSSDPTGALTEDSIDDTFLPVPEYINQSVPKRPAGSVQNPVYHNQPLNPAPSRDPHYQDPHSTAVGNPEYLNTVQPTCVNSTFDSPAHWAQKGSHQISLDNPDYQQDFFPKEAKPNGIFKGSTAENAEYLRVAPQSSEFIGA
The response must contain the number and no unit.

# compound, observationType, quantitativeResult
rows = [
    ("CCOc1cc(C(=O)N2CCC(N3CCN(C)CC3)CC2)ccc1Nc1ncc2c(n1)N(C1CCCC1)c1ccccc1C(=O)N2C [Compound 26]", "KINOMEscan: EGFR(L861Q)", 100),
    ("COc1cc(C(=O)N2CCC(N3CCN(C)CC3)CC2)ccc1Nc1ncc2c(n1)N1CCc3cccc(c31)C(=O)N2C [Compound 24]", "KINOMEscan: EGFR(L861Q)", 82),
    ("COc1cc(C(=O)N2CCC(N3CCN(C)CC3)CC2)ccc1Nc1ncc2c(n1)N(C1CCCC1)c1ccccc1C(=O)N2C [Compound 25]", "KINOMEscan: EGFR(L861Q)", 89),
]

Please look at the following compound next.
Task: For the compound COc1cc(C(=O)N2CCC(N3CCN(C)CC3)CC2)ccc1Nc1ncc2c(n1)N(C)c1ccccc1C(=O)N2C [15 (LRRK2-IN-1)] , give its measured KINOMEscan: EGFR(L861Q) value.
Output: 100
